subject.of.test: human P2Y12 receptor (Homo sapiens)
Construct: expressed in transfected cells; host or cells: Chinese Hamster Ovary (CHO) cells
method.notes: P2Y12 receptor binding assay
reported.conditions: CHO cells with recombinant expression of the human P2Y12 receptor; tritium-labeled 2-methyl-S-ADP; RT, 2 hours
reported.metric: IC50 (nM)

// solved cases for IC50 follow
1. CCCCOC(=O)N1CCN(C(=O)[C@@H](NC(=O)c2cc(N3C[C@@H]4[C@@H](CC(=O)O)[C@@H]4C3)nc(-c3ccccc3)n2)C(C)C)CC1	13
2. CCCCOC(=O)N1CCN(C(=O)C(NC(=O)c2cc(N3CC4C(C3)C4C(=O)O)nc(-c3ccccc3)n2)C(C)C)CC1C (stereo not drawn)	53
3. CCCCOC(=O)N1CCN(C(=O)[C@H](CCCC)NC(=O)c2cc(N3C[C@@H]4[C@H](C3)[C@@H]4C(=O)O)nc(-c3ccccc3)n2)CC1	136
4. CCCCOC(=O)N1CCN(C(=O)[C@H](CP(=O)(N[C@@H](C)C(=O)OCC)N[C@@H](C)C(=O)OCC)NC(=O)c2cc(N3C[C@@H]4[C@H](C3)[C@H]4C(=O)OCC)nc(-c3ccccc3)n2)CC1	110

[1] CCCCOC(=O)N1CCN(C(=O)[C@H](CC(C)C)NC(=O)c2cc(N3C[C@@H]4[C@H](C3)[C@@H]4C(=O)O)nc(-c3ccccc3)n2)CC1
[2] CCCCOC(=O)N1CCN(C(=O)[C@@H](NC(=O)c2cc(N3C[C@@H]4[C@H](C3)[C@@H]4C(N)=O)nc(-c3ccccc3)n2)C(C)C)CC1
Inquiry: Please compare: 1 and 2 . Report which one has the smaller IC50 value. State the label of the item chosen.
Reply text: 2
(2: 20 nM, 1: 124 nM)

###

subject.of.test: human P2Y12 receptor (Homo sapiens, UniProt Q9H244)
Sequence (Q9H244 whole entry): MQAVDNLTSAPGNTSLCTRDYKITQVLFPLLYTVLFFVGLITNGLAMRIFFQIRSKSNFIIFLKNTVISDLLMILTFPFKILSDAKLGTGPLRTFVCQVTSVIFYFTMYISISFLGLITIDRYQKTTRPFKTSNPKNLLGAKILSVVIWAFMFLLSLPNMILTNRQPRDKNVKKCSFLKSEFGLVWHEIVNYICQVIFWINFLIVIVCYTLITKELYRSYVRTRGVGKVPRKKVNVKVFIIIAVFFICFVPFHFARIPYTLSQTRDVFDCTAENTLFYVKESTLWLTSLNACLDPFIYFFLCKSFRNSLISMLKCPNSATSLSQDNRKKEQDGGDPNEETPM
method.notes: P2Y12 receptor binding assay
reported.conditions: CHO cells with recombinant expression of the human P2Y12 receptor; tritium-labeled 2-methyl-S-ADP; RT, 2 hours
reported.metric: IC50 (nM)

// solved cases for IC50 follow
1) CCCCOC(=O)N1CCN(C(=O)[C@@H](NC(=O)c2cc(N3C[C@@H]4[C@H](C#N)[C@@H]4C3)nc(-c3ccccc3)n2)C(C)C)CC1	10
2) CCCCCCOC(=O)N1CCN(C(=O)[C@@H](NC(=O)c2cc(N3C[C@@H]4[C@H](C3)[C@@H]4C(=O)O)nc(-c3ccccc3)n2)C(C)C)CC1	34
3) CCCCOC(=O)N1CCN(C(=O)[C@H](CCC(=O)O)NC(=O)c2cc(N3C[C@@H]4[C@H](C3)[C@H]4C(=O)OCC)nc(-c3ccccc3)n2)CC1	8.7
4) CCCCOC(=O)N1CCN(C(=O)[C@@H](NC(=O)c2cc(N3C[C@@H]4[C@@H](CCC(=O)O)[C@@H]4C3)nc(-c3ccccc3)n2)C(C)C)CC1	151
5) CCCCOC(=O)N1CCN(C(=O)[C@H](CC2CC2)NC(=O)c2cc(N3C[C@@H]4[C@H](C3)[C@@H]4C(=O)O)nc(-c3ccccc3)n2)CC1	143

[A] CCCCOC(=O)N1CCN(C(=O)[C@@H](NC(=O)c2cc(N3C[C@@H]4[C@@H](C#N)[C@@H]4C3)nc(-c3ccccc3)n2)C(C)C)CC1
[B] CCCCOC(=O)N1CCN(C(=O)[C@H](CCC(=O)O)NC(=O)c2cc(N3C[C@@H]4[C@H](N)[C@@H]4C3)nc(-c3ccccc3)n2)CC1
Inquiry: Recorded IC50 values differ for A and B ; which one is higher? State the label of the item chosen.
Reply text: A

[P] CCCCOC(=O)N1CCN(C(=O)[C@H](CP(=O)(OCOC(C)=O)OCOC(C)=O)NC(=O)c2cc(N3C[C@@H]4[C@H](C3)[C@H]4C(=O)OCC)nc(-c3ccccc3)n2)CC1
[Q] CCCCOC(=O)N1CCN(C(=O)[C@@H](NC(=O)c2cc(N3C[C@@H]4[C@H](C3)[C@H]4C(N)=O)nc(-c3ccccc3)n2)C(C)C)CC1
Inquiry: Please compare: P and Q . Report which one has the smaller IC50 value. State the label of the item chosen.
Reply text: P

[I] CCCCOC(=O)N1CCN(C(=O)[C@H](CCC(=O)O)NC(=O)c2cc(N3C[C@@H]4[C@H](C3)[C@@H]4NC(=O)OC(C)(C)C)nc(-c3ccccc3)n2)CC1
[II] CCCCOC(=O)N1CCN(C(=O)[C@@H](NC(=O)c2cc(N3C[C@@H]4[C@H](C3)[C@@H]4C(=O)O)nc(-c3cccc(C(F)(F)F)c3)n2)C(C)C)CC1
[III] CCCCOC(=O)N1CCN(C(=O)[C@@H](NC(=O)c2cc(N3C[C@@H]4[C@H](C3)[C@@H]4C(=O)O)nc(-c3ccccc3)n2)C2CC2)CC1
[IV] CCCCOC(=O)N1CCN(C(=O)[C@@H](NC(=O)c2cc(N3C[C@@H]4[C@H](C3)[C@@H]4c3nnn[nH]3)nc(-c3ccccc3)n2)C(C)C)CC1
Inquiry: Arrange by IC50, high to low. Answer format: the labels, in the requested order.
Reply text: II, IV, III, I

Data provenance is patent US8288385B2.
